These measurements were taken from PubChem BioAssay (NCI).

# System: MDA-MB-435 melanoma
# Assay: NCI-60 one-dose screen, 48 h
# Test settings: 10 µM unless noted
About 83,000 compounds went through this panel and 20% of them were active in at least one assay; those are over-represented in the sample as a whole. Calls of active or inactive are those of the source. How the source made its calls: active means growth percent below 10; inactive means the rest.
Your answer must be one of the following: YES (active), NO (inactive)

>  <Molecule>
C#CCOc1ccc(/C=N/Nc2nc(-c3ccc(F)cc3)cs2)cc1OC

>  <Group label>
NO

$$$$
>  <Molecule>
COCOc1ccc2c(=O)c(C)c(C(=O)N[C@@H](Cc3ccccc3)C(O)C(=O)NCCc3ccc(OC)cc3)oc2c1 (stereo partly drawn)

>  <Group label>
NO

$$$$
>  <Molecule>
Cn1cc(-c2cc3nc(-c4cn(C)c5ncc(Br)cc45)cc(N)n3n2)c2cc(Cl)ccc21

>  <Group label>
YES

$$$$
>  <Molecule>
COc1ccc(C(=O)/C=C/c2ccccc2Cl)cc1S(N)(=O)=O

>  <Group label>
NO

$$$$
>  <Molecule>
COc1c(F)ccc(C(=O)Nc2ccc3nc(NC(=O)C4CCCN(S(=O)(=O)c5cccc(Cl)c5)C4)sc3c2)c1F (stereo not drawn)

>  <Group label>
NO

$$$$
>  <Molecule>
CN1CCc2c(sc3ncnc(N/N=C/c4ccc(Cl)cc4Cl)c23)C1

>  <Group label>
YES

$$$$

Would you mind telling me which call this test gave COc1cc2oc(-c3cccc(C(=O)Nc4ccc(Cl)cc4)c3)cc(=O)c2c(OCC(=O)N[C@@H](Cc2ccccc2)C(=O)O)c1OC ? NO

Would you mind telling me which call this test gave O=c1onc(-c2cc3ccccc3nc2Cl)n1-c1cccc2ccccc12 ? YES

Would you mind telling me which call this test gave O=C1CC(Sc2n[nH]c(-c3ccncc3)n2)C(=O)N1c1ccc(Br)cc1 (stereo not drawn) ? NO
